Origin of the recorded values: paper PMC8297402

Each entry below lists one item and its recorded pIC50 value.
- test: Modified MTT cytotoxicity assay, normal heptical cell line HHL-5
- condition details: human, HHL-5 cells (normal hepatic cell line)
Scale for pIC50: -log10 of concentration given in mol/L; no unit attached.

Completed entries (count: 3):
>>> readout_number("O=C1C(=Cc2cccc(C(F)(F)F)c2)CN(S(=O)(=O)c2ccc(C(F)(F)F)cc2)CC1=Cc1cccc(C(F)(F)F)c1")
5.21
>>> readout_number("O=C1/C(=C/c2ccc(C(F)(F)F)cc2)CN(S(=O)(=O)c2ccc(Cl)cc2)C/C1=C\\c1ccc(C(F)(F)F)cc1")
5.04
>>> readout_number("O=C1/C(=C/c2ccc(C(F)(F)F)cc2)CN(S(=O)(=O)c2ccccc2)C/C1=C\\c1ccc(C(F)(F)F)cc1")
5.10

Here is another compound to look at.
So what does the record say about pIC50 for `O=C1/C(=C/c2cccc(C(F)(F)F)c2)CN(S(=O)(=O)c2ccc([N+](=O)[O-])cc2)C/C1=C\c1cccc(C(F)(F)F)c1` ?
5.28

###

- System: SMMC-7721
- test: Modified MTT cytotoxicity assay, SMMC-7721
- Format: cell-based, Human
- condition details: MTT, 24 h incubation, three replicates
- Method: The HepG2, SMMC-7721, and LO2 cell lines were maintained at 37 °C, 5% humidified CO2, and 95% atmosphere. Dulbecco's Modified Eagle (DMEM) medium containing 10% foetal bovine serum (FBS) was used for culturing the HepG2 cell line; meanwhile, Roswell Park Memorial Institute (RPMI) 1640 medium containing 10% FBS was used for culturing other cell lines (SMMC-7721, LO2). […]
Attribute: IC50

>>> result("O=C1/C(=C/c2ccccc2C(F)(F)F)CN(S(=O)(=O)c2ccc(C(F)(F)F)cc2)C/C1=C\\c1ccccc1C(F)(F)F")
"~2600 nM"
>>> result("O=C1/C(=C/c2ccccc2C(F)(F)F)CN(S(=O)(=O)c2ccccc2)C/C1=C\\c1ccccc1C(F)(F)F")
"~8200 nM"

// below: IC50 requested for another molecule
Which IC50 is reported for this molecule? `Cc1ccc(S(=O)(=O)N2C/C(=C\c3ccc(C(F)(F)F)cc3)C(=O)/C(=C/c3ccc(C(F)(F)F)cc3)C2)cc1`
~800 nM

###

- test: Modified MTT cytotoxicity assay, normal heptical cell line LO2
- Type: cell-based, human
- condition details: human, LO2 cells (normal hepatic cell line), 24 h incubation
- Procedure: The HepG2, SMMC-7721, and LO2 cell lines were maintained at 37 °C, 5% humidified CO2, and 95% atmosphere. Dulbecco's Modified Eagle (DMEM) medium containing 10% foetal bovine serum (FBS) was used for culturing the HepG2 cell line; meanwhile, Roswell Park Memorial Institute (RPMI) 1640 medium containing 10% FBS was used for culturing other cell lines (SMMC-7721, LO2). […]
experimental readout: IC50 at 24 h (µM)
Quick note: give the figure in µM, leave out the unit.

Query: IC50 at 24 h; subject: `O=C1/C(=C/c2cccc(C(F)(F)F)c2)CN(S(=O)(=O)c2ccc([N+](=O)[O-])cc2)C/C1=C\c1cccc(C(F)(F)F)c1`
12.6

Repeat with `N#Cc1ccc(S(=O)(=O)N2C/C(=C\c3ccccc3C(F)(F)F)C(=O)/C(=C/c3ccccc3C(F)(F)F)C2)cc1`
13

###

Listed below: IC50 values for each entry.
- Test system: HepG2
- test: Modified MTT cytotoxicity assay, HepG2
- Type: cell-based, Human
- condition details: MTT, 24 h incubation, three replicates; read-out: Cytotoxicity IC50 HepG2

Examples with their reported IC50 follow.
>>> result("O=C1/C(=C/c2ccccc2C(F)(F)F)CN(S(=O)(=O)c2ccccc2)C/C1=C\\c1ccccc1C(F)(F)F")
"~9200 nM"
>>> result("Cc1ccc(S(=O)(=O)N2C/C(=C\\c3ccc(C(F)(F)F)cc3)C(=O)/C(=C/c3ccc(C(F)(F)F)cc3)C2)cc1")
"~1000 nM"

Please examine the following record next.
Please look up its IC50: `O=C1/C(=C/c2ccccc2C(F)(F)F)CN(S(=O)(=O)c2ccc(C(F)(F)F)cc2)C/C1=C\c1ccccc1C(F)(F)F`
~2100 nM

###

- System: TNF-α
- test: ELISA of TNF-α release in LPS-stimulated RAW264.7 cells
- Format: cell-based, mouse
- condition details: Mus musculus, RAW264.7, BAPs (5 μM) + LPS (1 μg/mL), RAW264.7, ELISA; read-out: Inhibition rate TNF-α
As shown below, each of these molecules has a reported inhibition at 5 µM value.
Supply the numeric figure in %, leaving out any unit text.

Find the measured inhibition at 5 µM: item O=C1/C(=C/c2ccc(C(F)(F)F)cc2)CN(S(=O)(=O)c2ccc(Cl)cc2)C/C1=C\c1ccc(C(F)(F)F)cc1 [BAP 27] , target or system TNF-α.
69.9

Continue with O=C1/C(=C/c2ccc(C(F)(F)F)cc2)CN(S(=O)(=O)c2ccccc2)C/C1=C\c1ccc(C(F)(F)F)cc1 [BAP 22]
65.2

###

- test: Modified MTT cytotoxicity assay, normal heptical cell line HHL-5
- condition details: human, HHL-5 cells (normal hepatic cell line)
experimental readout: IC50 (µM)
Please give a number only; it is taken to be in µM.

Consider the reported IC50 for these compounds:
>>> readout_number("O=C1/C(=C/c2ccccc2C(F)(F)F)CN(S(=O)(=O)c2ccc(Cl)cc2)C/C1=C\\c1ccccc1C(F)(F)F")
9.3
>>> readout_number("O=C1/C(=C/c2ccc(C(F)(F)F)cc2)CN(S(=O)(=O)c2ccc(Br)cc2)C/C1=C\\c1ccc(C(F)(F)F)cc1")
20.7
>>> readout_number("N#Cc1ccc(S(=O)(=O)N2C/C(=C\\c3cccc(C(F)(F)F)c3)C(=O)/C(=C/c3cccc(C(F)(F)F)c3)C2)cc1")
2.4

Okay, now this compound:
Recorded IC50 for COc1cc(/C=C/C(=O)CC(=O)/C=C/c2ccc(O)c(OC)c2)ccc1O [Curcumin, reference compound] , please?
24.2

###

- test: Modified MTT cytotoxicity assay, normal heptical cell line LO2
- Assay type: cell-based, human
- condition details: human, LO2 cells (normal hepatic cell line), 24 h incubation
Recorded IC50 at 24 h values for a group of compounds are listed next.
Unit µM implied. Number only.

>>> readout_number("N#Cc1ccc(S(=O)(=O)N2C/C(=C\\c3cccc(C(F)(F)F)c3)C(=O)/C(=C/c3cccc(C(F)(F)F)c3)C2)cc1 [BAP 20]")
17.4
>>> readout_number("O=C1/C(=C/c2cccc(C(F)(F)F)c2)CN(S(=O)(=O)c2ccc(Br)cc2)C/C1=C\\c1cccc(C(F)(F)F)c1 [BAP 19]")
11
>>> readout_number("O=C1/C(=C/c2ccccc2C(F)(F)F)CN(S(=O)(=O)c2ccc(Cl)cc2)C/C1=C\\c1ccccc1C(F)(F)F [BAP 9]")
30.9
>>> readout_number("O=C1/C(=C/c2ccc(C(F)(F)F)cc2)CN(S(=O)(=O)c2ccc(Cl)cc2)C/C1=C\\c1ccc(C(F)(F)F)cc1 [BAP 27]")
15.8
>>> readout_number("COc1cc(/C=C/C(=O)CC(=O)/C=C/c2ccc(O)c(OC)c2)ccc1O [Curcumin, reference compound]")
29.1
>>> readout_number("Cc1ccc(S(=O)(=O)N2C/C(=C\\c3ccccc3C(F)(F)F)C(=O)/C(=C/c3ccccc3C(F)(F)F)C2)cc1 [BAP 5]")
36.2
>>> readout_number("O=C1/C(=C/c2ccccc2C(F)(F)F)CN(S(=O)(=O)c2ccc(F)cc2)C/C1=C\\c1ccccc1C(F)(F)F [BAP 8]")
13.8
>>> readout_number("O=C1/C(=C/c2ccccc2C(F)(F)F)CN(S(=O)(=O)c2ccc(Br)cc2)C/C1=C\\c1ccccc1C(F)(F)F [BAP 10]")
17

Endpoint output: IC50 at 24 h of O=C1/C(=C/c2cccc(C(F)(F)F)c2)CN(S(=O)(=O)c2ccc(F)cc2)C/C1=C\c1cccc(C(F)(F)F)c1 [BAP 17] . Value?
19.5

###

- System: TNF-α
- test: ELISA of TNF-α release in LPS-stimulated RAW264.7 cells
- Type: cell-based, mouse
- condition details: Mus musculus, RAW264.7, BAPs (5 μM) + LPS (1 μg/mL), RAW264.7, ELISA; read-out: Inhibition rate TNF-α
Attribute: inhibition at 5 µM

Check out these entries, answers already filled in.
>>> result("O=C1/C(=C/c2ccccc2C(F)(F)F)CN(S(=O)(=O)c2ccc(Br)cc2)C/C1=C\\c1ccccc1C(F)(F)F")
"59.2%"
>>> result("O=C1/C(=C/c2cccc(C(F)(F)F)c2)CN(S(=O)(=O)c2ccc(Br)cc2)C/C1=C\\c1cccc(C(F)(F)F)c1")
"49.2%"
>>> result("O=C1/C(=C/c2ccccc2C(F)(F)F)CN(S(=O)(=O)c2ccc(F)cc2)C/C1=C\\c1ccccc1C(F)(F)F")
"46.8%"
>>> result("N#Cc1ccc(S(=O)(=O)N2C/C(=C\\c3ccccc3C(F)(F)F)C(=O)/C(=C/c3ccccc3C(F)(F)F)C2)cc1")
"58.9%"
>>> result("O=C1/C(=C/c2cccc(C(F)(F)F)c2)CN(S(=O)(=O)c2ccccc2)C/C1=C\\c1cccc(C(F)(F)F)c1")
"56.3%"
>>> result("O=C1/C(=C/c2cccc(C(F)(F)F)c2)CN(S(=O)(=O)c2ccc(Cl)cc2)C/C1=C\\c1cccc(C(F)(F)F)c1")
"50.6%"
>>> result("Cc1ccc(S(=O)(=O)N2C/C(=C\\c3cccc(C(F)(F)F)c3)C(=O)/C(=C/c3cccc(C(F)(F)F)c3)C2)cc1")
"60.2%"

// below: inhibition at 5 µM requested for another compound
Any idea what inhibition at 5 µM was measured for `O=C1C(=Cc2cccc(C(F)(F)F)c2)CN(S(=O)(=O)c2ccc(C(F)(F)F)cc2)CC1=Cc1cccc(C(F)(F)F)c1` ?
~83.2%
